Just for reference, paper PMC12207590 is where these values come from.

system_under_test: MATE2K (Homo sapiens, UniProt Q86VL8)
Sequence (Q86VL8 1-566 isoform Q86VL8-3): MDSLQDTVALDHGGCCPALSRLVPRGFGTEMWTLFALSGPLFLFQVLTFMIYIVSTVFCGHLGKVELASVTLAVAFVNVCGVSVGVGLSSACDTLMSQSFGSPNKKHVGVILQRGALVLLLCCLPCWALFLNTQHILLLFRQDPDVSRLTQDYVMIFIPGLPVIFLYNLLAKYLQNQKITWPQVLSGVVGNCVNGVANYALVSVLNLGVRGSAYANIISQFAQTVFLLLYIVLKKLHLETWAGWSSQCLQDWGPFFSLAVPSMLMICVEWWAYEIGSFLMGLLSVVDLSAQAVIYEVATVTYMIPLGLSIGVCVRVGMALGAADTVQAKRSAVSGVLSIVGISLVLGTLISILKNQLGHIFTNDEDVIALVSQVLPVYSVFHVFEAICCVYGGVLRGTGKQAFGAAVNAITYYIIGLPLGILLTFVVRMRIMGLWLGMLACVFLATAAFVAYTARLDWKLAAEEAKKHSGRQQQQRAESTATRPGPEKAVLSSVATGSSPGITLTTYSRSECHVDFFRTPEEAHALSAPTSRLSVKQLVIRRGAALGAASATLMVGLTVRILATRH
assay_name: Uptake ratio in MATE2K-overexpressing HEK293 cells vs empty vector (2.5 μM, 1 min, HPLC-MS/MS)
Assay type: cell-based
condition: uptake ratio MATE2K-overexpressing vs empty-vector HEK293 cells, 2.5 μM, 1 min; mean
As shown below, each of these molecules has a reported MATE2 value.
property_name: MATE2

- molecule: "CN(C)CCc1c[nH]c2ccc(C[C@H]3COC(=O)N3)cc12 [Zolmitriptan]"
  observed_measurement: 5.51
- molecule: "NCCCCN"
  observed_measurement: 0.48
- molecule: "CC(C)NCC(O)COc1cccc2ccccc12 (stereo not drawn) [Propranolol]"
  observed_measurement: 1.14
- molecule: "CNCC(=O)O"
  observed_measurement: 1.01
- molecule: "CN(C)CCc1c[nH]c2ccc(C[C@H]3COC(=O)N3)cc12 [Zolmitriptan (R), Zolmitriptan]"
  observed_measurement: 6.48
- molecule: "Nc1ccn([C@H]2CC[C@@H](CO)O2)c(=O)n1"
  observed_measurement: 1.22

###

system_under_test: MATE2K (Homo sapiens, UniProt Q86VL8)
assay_name: Uptake ratio in MATE2K-overexpressing HEK293 cells vs empty vector (2.5 μM, 1 min, HPLC-MS/MS)
Type: cell-based
condition: fold uptake over empty vector, 2.5 μM, 1 min
Where a SMILES comes first, the peptide text is derived from it.

- compound: "CN(C)CCc1c[nH]c2ccc(Cn3cncn3)cc12"
  MATE2K ratio: 3.35
- compound: "COc1cc(C(O)CN)ccc1O (stereo not shown)"
  MATE2K ratio: 0.82
- compound: "Clc1ccc2c(c1)C(N1CCNCC1)=Nc1ccccc1O2"
  MATE2K ratio: 1.33
- compound: "C[N+]1(C)CCCC(OC(=O)C(O)(c2ccccc2)c2ccccc2)C1.[Br-] (stereo not shown) [Mepenzolate]"
  MATE2K ratio: 1.72
- compound: "COC(=O)[C@H]1[C@H]2C[C@@H]3c4[nH]c5cc(OC)ccc5c4CCN3C[C@H]2C[C@@H](OC(=O)c2cc(OC)c(OC)c(OC)c2)[C@@H]1OC"
  MATE2K ratio: 1.08
- compound: "CC[N+](CC)(CC)CC(=O)Nc1c(C)cccc1C"
  MATE2K ratio: 14.68
- compound: "CCCC(=O)Nc1ccc(OCC(O)CNC(C)C)c(C(C)=O)c1 (stereo not shown)"
  MATE2K ratio: 9.08
- compound: "COC(=O)[C@H](Cc1ccccc1)NC(=O)[C@@H](N)CC(=O)O [Aspartame] (HELM PEPTIDE1{D.F.[CO[*:1]]}$$$$V2.0)"
  MATE2K ratio: 1.07
- compound: "C[C@](N)(Cc1ccc(O)c(O)c1)C(=O)O"
  MATE2K ratio: 1.15
- compound: "CC[N+](C)(C)c1cccc(O)c1"
  MATE2K ratio: 10.98
- compound: "C=CCOc1ccccc1OCC(O)CNC(C)C (stereo not shown)"
  MATE2K ratio: 1.20
- compound: "O=S(=O)(c1cccc2cnccc12)N1CCCNCC1"
  MATE2K ratio: 1.80
- compound: "CN1CCN(CC(=O)N2c3ccccc3C(=O)Nc3cccnc32)CC1 [Pirenzepine]"
  MATE2K ratio: 1.36
- compound: "CNCC[C@@H](Oc1ccccc1C)c1ccccc1 [Atomoxetine]"
  MATE2K ratio: 1.18
- compound: "Oc1ccc(CC2NCCc3cc(O)c(O)cc32)cc1 (stereo not shown)"
  MATE2K ratio: 11.27
- compound: "N[C@@H](CC(=O)N1CCn2c(nnc2C(F)(F)F)C1)Cc1cc(F)c(F)cc1F"
  MATE2K ratio: 2.77
- compound: "COc1ccccc1OCCNCC(O)COc1cccc2[nH]c3ccccc3c12 [Carvedilol (R), Carvedilol]"
  MATE2K ratio: 1.08
- compound: "COc1ccc2[nH]cc(C[C@H](N)C(=O)O)c2c1"
  MATE2K ratio: 1.10
- compound: "CN[C@@H]1CCc2[nH]c3ccc(C(N)=O)cc3c2C1"
  MATE2K ratio: 31.50
- compound: "CNC(=C[N+](=O)[O-])NCCSCc1csc(CN(C)C)n1"
  MATE2K ratio: 10.42
- compound: "O=C(O[C@H]1CN2CCC1CC2)N1CCc2ccccc2[C@@H]1c1ccccc1"
  MATE2K ratio: 1.22
- compound: "CN(C)CC(c1ccc(O)cc1)C1(O)CCCCC1 (stereo not shown)"
  MATE2K ratio: 1.09
- compound: "CNCC[C@@H](Oc1ccccc1C)c1ccccc1 [Atomoxetine (S), Atomoxetine]"
  MATE2K ratio: 1.03
- compound: "NCC(CC(=O)O)c1ccc(Cl)cc1 (stereo not shown)"
  MATE2K ratio: 1.05
- compound: "CC(C)(C)NCC(O)c1ccc(O)c(CO)c1 [Salbutamol (S), Salbutamol]"
  MATE2K ratio: 5.09
- compound: "CNCCc1ccccn1"
  MATE2K ratio: 1.19
- compound: "OCCN1CCN(CCCN2c3ccccc3Sc3ccc(C(F)(F)F)cc32)CC1"
  MATE2K ratio: 1.13
- compound: "CN1C(=O)CC[C@H]1c1cccnc1"
  MATE2K ratio: 1.20
- compound: "N[C@@H](Cc1ccccc1)C(=O)O"
  MATE2K ratio: 1.01
- compound: "OC(CNCC(O)C1CCc2cc(F)ccc2O1)C1CCc2cc(F)ccc2O1 (stereo not shown)"
  MATE2K ratio: 1.45
- compound: "CCCN1CCCC[C@H]1C(=O)Nc1c(C)cccc1C"
  MATE2K ratio: 1.49
- compound: "NCCCCN=C(N)N"
  MATE2K ratio: 1.05
- compound: "CCCCCC(=O)OC(CC(=O)[O-])C[N+](C)(C)C (stereo not shown)"
  MATE2K ratio: 1.01
- compound: "N=C(N)NC(=O)Cc1c(Cl)cccc1Cl"
  MATE2K ratio: 1.37
- compound: "C[C@@H]1O[C@@]2(CS1)CN1CCC2CC1"
  MATE2K ratio: 1.35
- compound: "CNCC(=O)O"
  MATE2K ratio: 1.01
- compound: "CN(C)CCOC(=O)C(c1ccccc1)C1(O)CCCC1 (stereo not shown) [Cyclopentolate]"
  MATE2K ratio: 1.34
- compound: "C=CCN1C[C@H](C(=O)N(CCCN(C)C)C(=O)NCC)C[C@@H]2c3cccc4[nH]cc(c34)C[C@H]21"
  MATE2K ratio: 1.13
- compound: "CC[N+](C)(CC)CCOC(=O)C(O)(c1ccccc1)C1CCCCC1 (stereo not shown)"
  MATE2K ratio: 2.04
- compound: "CC(C[N+](C)(C)C)OC(N)=O (stereo not shown)"
  MATE2K ratio: 0.97

###

system_under_test: MATE1 (Homo sapiens, UniProt Q96FL8)
Sequence (Q96FL8 1-570): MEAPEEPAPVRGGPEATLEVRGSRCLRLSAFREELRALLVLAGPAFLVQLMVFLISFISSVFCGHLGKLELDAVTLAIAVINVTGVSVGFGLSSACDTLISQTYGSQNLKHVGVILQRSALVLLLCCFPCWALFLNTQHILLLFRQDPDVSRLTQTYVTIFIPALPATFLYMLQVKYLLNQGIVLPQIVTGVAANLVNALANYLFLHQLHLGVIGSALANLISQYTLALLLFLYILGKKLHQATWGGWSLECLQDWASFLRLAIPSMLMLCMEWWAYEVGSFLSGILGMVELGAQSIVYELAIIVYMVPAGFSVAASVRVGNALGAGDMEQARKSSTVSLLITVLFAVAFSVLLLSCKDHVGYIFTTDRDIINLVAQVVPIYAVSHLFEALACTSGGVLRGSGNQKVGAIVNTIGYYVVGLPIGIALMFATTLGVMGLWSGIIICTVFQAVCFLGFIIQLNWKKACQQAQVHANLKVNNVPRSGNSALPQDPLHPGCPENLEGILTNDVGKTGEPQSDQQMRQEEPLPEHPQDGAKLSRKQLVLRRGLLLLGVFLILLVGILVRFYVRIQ
assay_name: Uptake ratio in MATE1-overexpressing HEK293 cells vs empty vector (2.5 μM, 1 min, HPLC-MS/MS)
Type: cell-based
condition: fold uptake over empty vector, 2.5 μM, 1 min

- compound: "CC(C)C(=O)O[C@H](CC(=O)[O-])C[N+](C)(C)C"
  MATE1 ratio: 1.40
- compound: "C=CCN1CCCC1CNC(=O)c1cc2nn[nH]c2cc1OC (stereo not shown) [Alizapride]"
  MATE1 ratio: 3.68
- compound: "NCCCC(=O)O"
  MATE1 ratio: 0.90
- compound: "CNc1c(C)n(C)n(-c2ccccc2)c1=O [4-Methylaminoantipyrine]"
  MATE1 ratio: 0.21
- compound: "COc1cc(CNC(=O)CCCC/C=C/C(C)C)ccc1O"
  MATE1 ratio: 1.18
- compound: "CN1CC(=O)NC1=N"
  MATE1 ratio: 0.83
- compound: "NC(=O)OCC(COC(N)=O)c1ccccc1 [Felbamate]"
  MATE1 ratio: 0.97
- compound: "CC(C)(C)NCC(O)c1ccc(O)c(CO)c1 [Salbutamol (S), Salbutamol]"
  MATE1 ratio: 8.88
- compound: "CNC1(C)C2CCC(C2)C1(C)C (stereo not shown)"
  MATE1 ratio: 1.20
- compound: "CCCC(=O)Nc1ccc(OCC(O)CNC(C)C)c(C(C)=O)c1 (stereo not shown)"
  MATE1 ratio: 12.97
